Origin of the recorded values: patent US20180214548A1

# experimental_system: T1, cyno PD-1^ECD-hFc protein (cyno monkey, UniProt B0LAJ3 25-167)
# T1 construct: Prepared by the method for Immunogen A; also called Cyno Monkey PD-1^ECD-hFc; cyno monkey PD-1-hFc; not shown: human IgG Fc fragment (hFc) and its junction to the ECD
# T1 sequence (B0LAJ3 entry or part of it limits assumed): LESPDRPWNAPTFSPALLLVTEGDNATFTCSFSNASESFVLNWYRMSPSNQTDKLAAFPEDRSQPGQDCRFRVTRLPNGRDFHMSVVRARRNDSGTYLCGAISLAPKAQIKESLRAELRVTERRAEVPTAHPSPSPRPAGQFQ
# measurement_description: ELISA, coated cyno PD-1ECD-hFc; antibody 10 nM
endpoint_label: OD450 nm
Lab note: jot down the number only; don't add units.

Name the reported OD450 nm value associated with the binder chimeric anti-PD-1 antibody 76G5B3 (antibody, V domains shown, Purified from hybridoma of Harbour H2L2 mice: human variable regions, rat constant regions) VH: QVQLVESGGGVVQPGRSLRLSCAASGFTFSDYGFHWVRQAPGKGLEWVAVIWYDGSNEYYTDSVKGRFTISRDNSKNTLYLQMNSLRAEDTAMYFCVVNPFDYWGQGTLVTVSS VL: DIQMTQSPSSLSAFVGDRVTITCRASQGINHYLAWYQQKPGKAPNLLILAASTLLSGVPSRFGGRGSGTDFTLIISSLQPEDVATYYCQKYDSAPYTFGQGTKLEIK
1.62

Please give the measured OD450 nm for this binder: chimeric anti-PD-1 antibody 223G6B5 (antibody, V domains shown, Purified from hybridoma of Harbour H2L2 mice: human variable regions, rat constant regions) VH: QVQLQESGPGLVKPSETLSLTCAVSGHSIRGSYFWGWIRQPPGRGLEWIGSIYHSGSTYTNPSLKSRATISVDTSKNQFSLKLNSVTAADTAVYYCARDLDIATTRDYWGQGTLVTVSS VL: DIQLTQSPSFLSASVGDRVTIICRASQGINNYLAWYQQKPGKAPKLLIYAASTLQSGVPSRFSGSGSGTEFTLTISSLQPEDFATYYCQQLDSYPRTFGQGTKVEIKR
2.74

# get_value(readout='OD450 nm', item= chimeric anti-PD-1 antibody 21G8F11 (antibody, V domains shown, Purified from hybridoma of Harbour H2L2 mice: human variable regions, rat constant regions) VH: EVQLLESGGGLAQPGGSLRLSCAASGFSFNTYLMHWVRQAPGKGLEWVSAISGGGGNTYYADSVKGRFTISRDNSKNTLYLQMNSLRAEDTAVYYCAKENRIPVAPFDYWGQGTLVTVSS VL: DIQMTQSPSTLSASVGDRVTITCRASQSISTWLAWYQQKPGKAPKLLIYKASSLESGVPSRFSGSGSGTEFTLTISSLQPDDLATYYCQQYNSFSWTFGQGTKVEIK )
2.63

# get_value(readout='OD450 nm', item= chimeric anti-PD-1 antibody 32B5C7 (antibody, V domains shown, Purified from hybridoma of Harbour H2L2 mice: human variable regions, rat constant regions) VH: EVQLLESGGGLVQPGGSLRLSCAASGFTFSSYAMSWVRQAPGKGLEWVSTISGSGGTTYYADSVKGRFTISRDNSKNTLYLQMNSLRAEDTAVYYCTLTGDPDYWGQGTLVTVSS VL: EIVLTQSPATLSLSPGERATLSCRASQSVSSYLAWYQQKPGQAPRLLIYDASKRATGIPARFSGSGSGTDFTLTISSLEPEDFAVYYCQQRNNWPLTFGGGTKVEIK )
1.51
